The reader will find reported Ki values listed item by item below.
- Test Target: GABA A receptor α5β3γ2 (Homo sapiens, UniProt P18507+P31644)
- Construct: expressed in transfected cells; host or cells: HEK293 cells, transiently transfected; membranes prepared
- Protocol Details: [3H]flumazenil competition binding, human GABA A α5β3γ2
- Test Context: competition for [3H]flumazenil (0.5 nM) binding, HEK293 cells expressing human (transiently transfected) α5β3γ2; means of two determinations; read-out: Ki[nM] hα5
- Procedure: Membrane Preparation and Binding Assay The affinity of compounds at GABA A receptor subtypes was measured by competition for [3H]flumazenil (85 Ci/mmol; Roche) binding to HEK293 cells expressing rat (stably transfected) or human (transiently transfected) receptors of composition […]
Note: unit nM is implicit; provide only the numeric part.

Use these answered entries as a reference point.
1. COc1cc(N(S(C)(=O)=O)S(C)(=O)=O)ccc1-c1nnc(-c2c(-c3ccccc3)noc2C)o1 = 85
2. COC(=O)c1ccc(-c2nnc(-c3c(-c4ccccc4)noc3C)o2)cc1 = 289
3. COc1cc(NC2CCOCC2)ccc1-c1nnc(-c2c(-c3ccccc3)noc2C)o1 = 4.2
4. COc1ccc(-c2nnc(-c3c(-c4ccccc4)noc3C)o2)c(OC)c1 = 31.7

Please look at the following molecule next.
The reported Ki of the molecule COc1cc(N2CCOCC2)ccc1-c1nnc(-c2c(-c3ccccc3)noc2C#N)o1 was 131
